Each recorded value in this set is attributed to patent US9221875B2.

# MEASUREMENT PROTOCOL: in vitro
# Format: cell-based
# TEST CONTEXT: human, HDF dermal fibroblast cells
Peptide text beside a SMILES is read from it.
RECORDED ENDPOINT: viability at 24 h, 125 µg/mL

INPUT: GET /values?readout=viability at 24 h, 125 µg/mL&item= CC[C@H](C)[C@H](N)C(=O)N[C@@H](CCCNC(=N)N)C(=O)N[C@H](C(=O)N[C@@H](CCCCN)C(=O)N[C@H](C(=O)N[C@@H](CCCNC(=N)N)C(=O)N[C@H](C(=O)N[C@@H](CCCCN)C(=O)N[C@H](C(=O)N[C@@H](CCCNC(=N)N)C(=O)N[C@H](C(=O)N[C@@H](CCCCN)C(N)=O)[C@@H](C)CC)[C@@H](C)CC)[C@@H](C)CC)[C@@H](C)CC)[C@@H](C)CC [(IRIK)3-NH2] (H-IRIKIRIKIRIK-NH2; N-terminus assumed)
OUTPUT: > 80%

----------
# System: P. aeruginosa
# TEST CONTEXT: 18 h
Square brackets hold non-standard residues; d marks the D form. Peptide text beside a SMILES is read from it.
RECORDED ENDPOINT: MIC P aeruginosa

INPUT: # get_value(readout='MIC P aeruginosa', item= CC[C@@H](C)[C@@H](N)C(=O)N[C@@H](C(=O)N[C@H](CCCNC(=N)N)C(=O)N[C@H](CCCCN)C(=O)N[C@@H](C(=O)N[C@@H](C(=O)N[C@H](CCCNC(=N)N)C(=O)N[C@H](CCCCN)C(N)=O)[C@H](C)CC)[C@H](C)CC)[C@H](C)CC [Control-all D, iirkiirk-NH2] (H-[dI][dI][dR][dK][dI][dI][dR][dK]-NH2; N-terminus assumed) )
OUTPUT: >500 mg/L

INPUT: Please report the recorded MIC P aeruginosa for CC[C@H](C)[C@H](N)C(=O)N[C@H](C(=O)N[C@@H](CCCNC(=N)N)C(=O)N[C@@H](CCCCN)C(=O)N[C@H](C(=O)N[C@H](C(=O)N[C@@H](CCCNC(=N)N)C(=O)N[C@@H](CCCCN)C(N)=O)[C@@H](C)CC)[C@@H](C)CC)[C@@H](C)CC [Control-all L] (H-IIRKIIRK-NH2; N-terminus assumed) .
OUTPUT: >500 mg/L

INPUT: Requested read-out: MIC P aeruginosa. Entry: CC[C@@H](C)[C@@H](N)C(=O)N[C@H](CCCNC(=N)N)C(=O)N[C@@H](C(=O)N[C@H](CCCCN)C(=O)N[C@@H](C(=O)N[C@H](CCCNC(=N)N)C(N)=O)[C@H](C)CC)[C@H](C)CC [IK6-all D, irikir-NH2] (H-[dI][dR][dI][dK][dI][dR]-NH2; N-terminus assumed)
OUTPUT: 125 mg/L

----------
# MEASUREMENT PROTOCOL: in vitro
# Format: cell-based
# TEST CONTEXT: rat, NR8383 macrophage cells
Peptide text beside a SMILES is read from it.
RECORDED ENDPOINT: viability at 24 h, 250 µg/mL

INPUT: Entry under review: CC(C)[C@H](N)C(=O)N[C@@H](CCCNC(=N)N)C(=O)N[C@H](C(=O)N[C@@H](CCCCN)C(=O)N[C@H](C(=O)N[C@@H](CCCNC(=N)N)C(=O)N[C@H](C(=O)N[C@@H](CCCCN)C(=O)N[C@H](C(=O)N[C@@H](CCCNC(=N)N)C(=O)N[C@H](C(=O)N[C@@H](CCCCN)C(N)=O)C(C)C)C(C)C)C(C)C)C(C)C)C(C)C [(VRVK)3-NH2] (H-VRVKVRVKVRVK-NH2; N-terminus assumed) . Reported viability at 24 h, 250 µg/mL?
OUTPUT: > 53%

----------
# MEASUREMENT PROTOCOL: in vitro
# Format: cell-based
# TEST CONTEXT: human
Peptide text beside a SMILES is read from it.
RECORDED ENDPOINT: viability at 24 h, 250 mg/L (%)
# unit: % | format: bare number

INPUT: I would be grateful if you could share the reported viability at 24 h, 250 mg/L for CC(C)[C@H](N)C(=O)N[C@@H](CCCNC(=N)N)C(=O)N[C@H](C(=O)N[C@@H](CCCCN)C(=O)N[C@H](C(=O)N[C@@H](CCCNC(=N)N)C(=O)N[C@H](C(=O)N[C@@H](CCCCN)C(=O)N[C@H](C(=O)N[C@@H](CCCNC(=N)N)C(=O)N[C@H](C(=O)N[C@@H](CCCCN)C(N)=O)C(C)C)C(C)C)C(C)C)C(C)C)C(C)C [(VRVK)3-NH2] (H-VRVKVRVKVRVK-NH2; N-terminus assumed) .
OUTPUT: 30

----------
Would you kindly list MIC C. albicans for each of these molecules?
# Tested on: C. albicans
Square brackets hold non-standard residues; d marks the D form. Peptide text beside a SMILES is read from it.
Answer format: numeric, mg/L implied, no suffix.

INPUT: MIC C. albicans for CC[C@H](C)[C@H](N)C(=O)N[C@@H](CCCNC(=N)N)C(=O)N[C@H](C(=O)N[C@@H](CCCCN)C(=O)N[C@H](C(=O)N[C@@H](CCCNC(=N)N)C(=O)N[C@H](C(=O)N[C@@H](CCCCN)C(N)=O)[C@@H](C)CC)[C@@H](C)CC)[C@@H](C)CC [(IRIK)2-NH2] (H-IRIKIRIK-NH2; N-terminus assumed) ?
OUTPUT: 3.9

INPUT: Request the reported MIC C. albicans associated with CC[C@@H](C)[C@@H](N)C(=O)N[C@@H](C(=O)N[C@H](CCCNC(=N)N)C(=O)N[C@H](CCCCN)C(=O)N[C@@H](C(=O)N[C@@H](C(=O)N[C@H](CCCNC(=N)N)C(=O)N[C@H](CCCCN)C(N)=O)[C@H](C)CC)[C@H](C)CC)[C@H](C)CC [Control-all D, iirkiirk-NH2] (H-[dI][dI][dR][dK][dI][dI][dR][dK]-NH2; N-terminus assumed)
OUTPUT: 250

INPUT: May I ask what MIC C. albicans has been recorded for CC[C@H](C)[C@H](N)C(=O)N[C@@H](CCCNC(=N)N)C(=O)N[C@H](C(=O)N[C@@H](CCCCN)C(=O)N[C@H](C(=O)N[C@@H](CCCNC(=N)N)C(=O)N[C@H](C(=O)N[C@@H](CCCCN)C(=O)N[C@H](C(=O)N[C@@H](CCCNC(=N)N)C(=O)N[C@H](C(=O)N[C@@H](CCCCN)C(N)=O)C(C)C)[C@@H](C)CC)C(C)C)[C@@H](C)CC)C(C)C [(IRVK)3-NH2] (H-IRVKIRVKIRVK-NH2; N-terminus assumed) ?
OUTPUT: 125

INPUT: Given the molecule CC[C@@H](C)[C@@H](N)C(=O)N[C@H](CCCNC(=N)N)C(=O)N[C@@H](C(=O)N[C@H](CCCCN)C(=O)N[C@@H](C(=O)N[C@H](CCCNC(=N)N)C(=O)N[C@@H](C(=O)N[C@H](CCCCN)C(=O)N[C@@H](C(=O)N[C@H](CCCNC(=N)N)C(=O)N[C@@H](C(=O)N[C@H](CCCCN)C(N)=O)C(C)C)[C@H](C)CC)C(C)C)[C@H](C)CC)C(C)C [IK12-all D, irvkirvkirvk-NH2] (H-[dI][dR][dV][dK][dI][dR][dV][dK][dI][dR][dV][dK]-NH2; N-terminus assumed) , what is its reported MIC C. albicans?
OUTPUT: 31.3

INPUT: Using the record for CC[C@H](C)[C@H](N)C(=O)N[C@H](C(=O)N[C@@H](CCCNC(=N)N)C(=O)N[C@@H](CCCCN)C(=O)N[C@H](C(=O)N[C@H](C(=O)N[C@@H](CCCNC(=N)N)C(=O)N[C@@H](CCCCN)C(N)=O)[C@@H](C)CC)[C@@H](C)CC)[C@@H](C)CC [Control-all L] (H-IIRKIIRK-NH2; N-terminus assumed) , report its MIC C. albicans.
OUTPUT: 500

----------
Field: MIC P aeruginosa. Provide a value for each of the compounds that follow.
# Tested on: P. aeruginosa
# TEST CONTEXT: 18 h
Square brackets hold non-standard residues; d marks the D form. Peptide text beside a SMILES is read from it.
Give the quantity in µg/mL, number only.

INPUT: Query: MIC P aeruginosa; subject: CC[C@@H](C)[C@@H](N)C(=O)N[C@H](CCCNC(=N)N)C(=O)N[C@@H](C(=O)N[C@H](CCCCN)C(=O)N[C@@H](C(=O)N[C@H](CCCNC(=N)N)C(=O)N[C@@H](C(=O)N[C@H](CCCCN)C(N)=O)[C@H](C)CC)[C@H](C)CC)[C@H](C)CC [IK8-all D, irikirik-NH2] (H-[dI][dR][dI][dK][dI][dR][dI][dK]-NH2; N-terminus assumed)
OUTPUT: 7.8

INPUT: Form field: reported MIC P aeruginosa of CC[C@H](C)[C@H](N)C(=O)N[C@@H](CCCNC(=N)N)C(=O)N[C@H](C(=O)N[C@H](CCCCN)C(=O)N[C@H](C(=O)N[C@H](CCCNC(=N)N)C(=O)N[C@H](C(=O)N[C@@H](CCCCN)C(N)=O)[C@@H](C)CC)[C@@H](C)CC)[C@@H](C)CC [IK8-2D, IRIkIrIK-NH2] (H-IRI[dK]I[dR]IK-NH2; N-terminus assumed)
OUTPUT: 7.8

INPUT: Item CC[C@H](C)[C@H](N)C(=O)N[C@@H](CCCNC(=N)N)C(=O)N[C@H](C(=O)N[C@@H](CCCCN)C(=O)N[C@H](C(=O)N[C@@H](CCCNC(=N)N)C(=O)N[C@H](C(=O)N[C@@H](CCCCN)C(N)=O)[C@@H](C)CC)[C@@H](C)CC)[C@@H](C)CC [(IRIK)2-NH2] (H-IRIKIRIK-NH2; N-terminus assumed) has what recorded MIC P aeruginosa?
OUTPUT: 31.3
